- Tgt: Polycomb protein EED (Homo sapiens)
- Sequence (O75530 whole entry): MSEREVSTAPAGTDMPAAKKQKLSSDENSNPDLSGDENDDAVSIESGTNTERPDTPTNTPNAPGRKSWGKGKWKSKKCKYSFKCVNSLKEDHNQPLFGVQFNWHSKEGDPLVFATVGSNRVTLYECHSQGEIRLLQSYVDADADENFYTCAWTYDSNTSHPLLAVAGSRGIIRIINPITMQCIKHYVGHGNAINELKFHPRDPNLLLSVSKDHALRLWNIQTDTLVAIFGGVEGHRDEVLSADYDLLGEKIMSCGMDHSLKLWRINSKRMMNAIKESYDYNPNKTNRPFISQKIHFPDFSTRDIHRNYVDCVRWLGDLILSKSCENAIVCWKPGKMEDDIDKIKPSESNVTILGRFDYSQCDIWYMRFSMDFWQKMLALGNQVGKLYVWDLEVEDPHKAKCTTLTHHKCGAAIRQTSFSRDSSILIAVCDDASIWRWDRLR
- Assay name: Inhibition of EED in human OCILY19 cells assessed as reduction in H3K27 trymethylation measured after 6 days by alphaLISA method
- Assay type: cell-based
Lab note - cut at 700 nM for IC50: Criterion met if strictly below, Criterion not met if not.

Ask: Does the reported IC50 of the following compound sit strictly below 700 nM? "Cc1cccc(F)c1CN1C[C@H](c2cn(C)c3ccccc23)[C@@H](N(C)C)C1"
Result: Criterion not met

Ask: Does the reported IC50 of the following compound sit strictly below 700 nM? "CN(C)[C@H]1CN([C@H]2CCc3cccc(F)c32)C[C@@H]1c1cn(C)c2ccccc12"
Result: Criterion met

Ask: Does the reported IC50 of the following compound sit strictly below 700 nM? Cc1cccc(F)c1CN1C[C@H](c2cn(C)c3c(C(=O)N4CC(F)C4)cccc23)[C@@H](N(C)C)C1 (mixture of isomers)
Result: Criterion met

Ask: Does the reported IC50 of the following compound sit strictly below 700 nM? CC(=O)N1CCN(c2ccc([C@H]3CN(C4CCc5cccc(F)c54)C[C@@H]3N(C)C)cc2)CC1 (mixture of isomers)
Result: Criterion met

Ask: Does the reported IC50 of the following compound sit strictly below 700 nM? CN(C)[C@H]1CN(Cc2c(F)cccc2Br)C[C@@H]1c1cn(C)c2ccccc12 (racemic)
Result: Criterion not met

Continuing:
Ask: Does the reported IC50 of the following compound sit strictly below 700 nM? Cc1cccc(F)c1CN1C[C@H](c2cn(C)c3c(N4CCN(C)C(=O)C4)cccc23)[C@@H](N(C)C)C1 (mixture of isomers)
Result: Criterion met

Ask: Does the reported IC50 of the following compound sit strictly below 700 nM? CN(C)[C@H]1CN(C2CCc3cccc(F)c32)C[C@@H]1C1CCN(c2ccc(C(N)=O)cn2)CC1 (mixture of isomers)
Result: Criterion met

Ask: Does the reported IC50 of the following compound sit strictly below 700 nM? CN(C)[C@H]1CN(Cc2c(F)cccc2Cl)C[C@@H]1c1cn(C)c2ccccc12 (racemic)
Result: Criterion not met

---

Assay read-out pKi; system under study: Polycomb protein EED (Homo sapiens).
Quick note: pKi means taking -log10 of the concentration in moles per liter.

Worked cases, answers included:
Ask: Please give the measured pKi for this compound: CN(C)[C@H]1CN(Cc2c(F)cccc2Cl)C[C@@H]1c1cn(C)c2ccccc12 (racemic)
Result: 7.28

Ask: Please give the measured pKi for this compound: CN(C)[C@H]1CN([C@H]2CCc3ncccc32)C[C@@H]1c1cn(C)c2ccccc12 (racemic)
Result: 6.59

Ask: Please give the measured pKi for this compound: C[C@H]1CN(Cc2c(F)cccc2Br)C[C@@H]1N(C)C (racemic)
Result: 6.42

Ask: Please give the measured pKi for this compound: CN(C)[C@H]1CN(Cc2c(F)cccc2Br)C[C@@H]1C1CCCCC1 (racemic)
Result: 6.64

Ask: Please give the measured pKi for this compound: CN(C)[C@H]1CN(C2CCc3cccc(F)c32)C[C@@H]1C1CCN(c2ccc(C(N)=O)cn2)CC1 (mixture of isomers)
Result: 9.35

Ask: Please give the measured pKi for this compound: CN(C)[C@H]1CN(Cc2c(F)cccc2Br)C[C@@H]1c1ccccc1 (racemic)
Result: 7.11

Field: next compound
Ask: Please give the measured pKi for this compound: CC(=O)N1CCN(c2ccc([C@H]3CN(C4CCc5cccc(F)c54)C[C@@H]3N(C)C)cc2)CC1 (mixture of isomers)
Result: 9.54

---

- Tested on: Liver
- Assay name: Unbound intrinsic clearance in mouse liver microsomes at 0.5 uM by HPLC-MS/MS method
- Type: ADME, microsome
log10 CL free values, listed per item
Note: values are log10 of CL free expressed in L/h/kg.

Worked cases, answers included:
Ask: Please give the measured log10 CL free for this compound: CC(=O)N1CCN(c2ccc([C@H]3CN(C4CCc5cccc(F)c54)C[C@@H]3N(C)C)cc2)CC1 (mixture of isomers)
Result: 2.34

Ask: Please give the measured log10 CL free for this compound: Cc1cccc(F)c1CN1C[C@H](c2cn(C)c3c(C(=O)N4CC(F)C4)cccc23)[C@@H](N(C)C)C1 (mixture of isomers)
Result: 3.04

Ask: Please give the measured log10 CL free for this compound: CC(=O)N1CCN(c2ccc([C@H]3CN(Cc4c(C)cccc4F)C[C@@H]3N(C)C)cc2)CC1 (racemic)
Result: 2.23

Continuing:
Ask: Please give the measured log10 CL free for this compound: Cc1cccc(F)c1CN1C[C@H](c2ccccc2)[C@@H](N(C)C)C1 (racemic)
Result: 3.11

Ask: Please give the measured log10 CL free for this compound: Cc1cccc(F)c1CN1C[C@H](c2ccc(N3CCN(c4ccccn4)CC3)cc2)[C@@H](N(C)C)C1 (racemic)
Result: 4.00

Ask: Please give the measured log10 CL free for this compound: Cc1cccc(F)c1CN1C[C@H](c2ccc(-c3cnn(CC(N)=O)c3)cc2)[C@@H](N(C)C)C1 (racemic)
Result: 2.35

---

- System: Liver
- Assay name: Unbound intrinsic clearance in mouse liver microsomes at 0.5 uM by HPLC-MS/MS method
- Assay type: ADME, microsome
Readout name: CL free (L/h/kg)
Answer format: numeric, L/h/kg implied, no suffix.

Worked cases, answers included:
Ask: Please give the measured CL free for this compound: Cc1cccc(F)c1CN1C[C@H](c2ccc(C(=O)N(C)C)cc2)[C@@H](N(C)C)C1 (racemic)
Result: 97

Ask: Please give the measured CL free for this compound: Cc1cccc(F)c1CN1C[C@H](c2ccc(C3=CCN(C(=O)CS(C)(=O)=O)CC3)nc2)[C@@H](N(C)C)C1 (racemic)
Result: 268

Ask: Please give the measured CL free for this compound: Cc1cccc(F)c1CN1C[C@H](c2cn(CC(=O)N(C)C)c3ncccc23)[C@@H](N(C)C)C1 (racemic)
Result: 276

Field: next compound
Ask: Please give the measured CL free for this compound: CN(C)[C@H]1CN(C2CCc3cccc(F)c32)C[C@@H]1C1CCN(c2ccc(C(N)=O)cn2)CC1 (mixture of isomers)
Result: 120

---

Ki values, listed per item
- Tgt: Polycomb protein EED (Homo sapiens)
Answer format: numeric, nM implied, no suffix.

Worked cases, answers included:
Ask: Please give the measured Ki for this molecule: CN(C)[C@H]1CN(Cc2c(F)cccc2Br)C[C@@H]1C1CC1 (racemic)
Result: 71

Ask: Please give the measured Ki for this molecule: Cc1cccc(F)c1CN1C[C@H](c2ccc(N3CCN(c4ccccn4)CC3)cc2)[C@@H](N(C)C)C1 (racemic)
Result: 2.1

Ask: Please give the measured Ki for this molecule: Cc1cccc(F)c1CN1C[C@H](C2CCN(c3cnc(C(N)=O)cn3)CC2)[C@@H](N(C)C)C1 (racemic)
Result: 0.65

Field: next molecule
Ask: Please give the measured Ki for this molecule: Cc1cccc(F)c1CN1C[C@H](c2cn(C)c3c(C(=O)N4CC(F)C4)cccc23)[C@@H](N(C)C)C1 (mixture of isomers)
Result: 1

The measured values listed here are drawn from ChEMBL document CHEMBL4004873.
